Readings of GI50 for the listed compounds
Test system: IGROV-1
Test: NCI tumour cell line growth inhibition, 48 h
Activity calls are given as the source filed them. Cut-off read from the data, not from the text of the source: active = GI50 up to about 1.1 µM and inactive = higher.

CCCCCCN(N)C(=O)CC#N : > 100 µM (inactive)
OCCn1cnc2c(SCc3ccccc3)ncnc21 : > 100 µM (inactive)
CN(C)Cc1cc(C(=O)/C=C/c2ccc(Br)cc2)cc(CN(C)C)c1O : 11.7 µM (inactive)

Test item O=C(CC(=O)N1N=C(N(c2ccccc2)c2ccccc2)CC1c1ccccc1)Nc1ccc(Cl)cc1 (stereo unspecified) ; IGROV-1; reported GI50 was > 100 µM (inactive)

The compound CC(Nc1ccc(S(=O)(=O)NC(=N)N)cc1)c1c2ccccc2nc2ccccc12 (stereo unspecified) on IGROV-1: GI50 was 46.5 µM (inactive)

Let me check: CN(C)c1ccc(/C=N/Nc2nc3ccccc3c(=O)n2-c2ccccc2)cc1 , system IGROV-1, measured GI50 is > 100 µM (inactive)

The reported IGROV-1 GI50 of C/C(CC(=O)Nc1cc(C)ccc1C)=N\NC(=O)c1ccncc1 is > 100 µM (inactive)

Here Cn1c(=O)c2nc(CCCc3ccc([N+](=O)[O-])cc3)[nH]c2n(C)c1=O was tested on IGROV-1, and its GI50 came to > 100 µM (inactive)

* * *

Each entry below lists one item and its recorded GI50 value.
System: OVCAR-5
Experiment: NCI tumour cell line growth inhibition, 48 h
Active and inactive are the calls of the source. Rule as the data show it: active = GI50 up to about 1.1 µM and inactive = higher.

O=C1CC(NCCCNC2CC(=O)c3c(Br)sc(Br)c32)c2c(Br)sc(Br)c21 (stereo unspecified) : 2.21 µM (inactive)
Cc1cc(C#N)c(Nc2ccccc2[N+](=O)[O-])s1 : 14.2 µM (inactive)
Cc1cc(O)c2c3c1C(=O)Oc1c(CO)c(O)c(C(=O)O)c(c1O3)C=NN=Cc1c3c(c(CO)c(O)c1C(=O)O)OC(=O)c1c(C)cc(O)c(c1O3)C=NN=C2 : > 100 µM (inactive)
CC(Nc1cc(Cl)cc(Cl)c1)c1ccncc1 (stereo unspecified) : 16.2 µM (inactive)
OCSc1nn(CO)c(=S)s1 : 48.1 µM (inactive)
CC1=C(C#N)C(C#N)(C#N)C(NN(C)C)C1 (stereo unspecified) : 23.3 µM (inactive)
c1ccc2c(c1)CN1CCCC1CN2 (stereo unspecified) : > 100 µM (inactive)
C=C(C)C1Cc2c(cc(O)c3c(=O)c4c(oc23)C(O)Oc2cc(OC)c(OC)cc2-4)O1 (stereo unspecified) : > 10 µM (inactive)
CCOP(=O)(OCC)/C(C#N)=C/c1cn(C)cn1 : > 100 µM (inactive)
Cc1cc(Cl)ccc1NC(=O)/C(=N\NC(C)(C)C)C(C#N)c1nc(-c2ccc([N+](=O)[O-])cc2)cs1 (stereo unspecified) : > 100 µM (inactive)

# next molecule below
GI50 in this record for C=CCc1cccc2cc(C(=O)NC3CCCCC3)c(=N)oc12 : 17.9 µM (inactive)

* * *

Test system: SR
Assay: NCI tumour cell line growth inhibition, 48 h
Activity calls are given as the source filed them. No stated cut-off is given here; in the data, active = GI50 up to about 1.1 µM and inactive = higher.
Measurement Kind: GI50

Worked cases, GI50 given:
COc1cccc(/N=N/C(=N/NC(=O)c2cc(Cl)ccc2O)c2ccc(N(CCC#N)CCC#N)cc2C)c1 : 21.2 µM (inactive)
CN(CCNC(=O)c1c[nH]c2c1ccc1ccccc12)CCNC(=O)c1c[nH]c2c1ccc1ccccc12 : 2.08 µM (inactive)

Short answer for N#Cc1c(N)oc(-c2cccc([N+](=O)[O-])c2)c1C#N : GI50 was 46.6 µM (inactive)

GI50 in this record for CCC(CCCN)Nc1cc(OC)cc2cccnc12 (stereo not given) : 79.6 µM (inactive)

Quick note, GI50 for CC12CC3CC/C(=N\O)C(C1)C3(N1CCOCC1)C/C2=N/O (stereo not given) landed at > 100 µM (inactive)

* * *

Recorded GI50 by entry
Test system: MDA-MB-231
Experiment: NCI tumour cell line growth inhibition, 48 h
Activity calls are given as the source filed them. Cut-off read from the data, not from the text of the source: active = GI50 up to about 1.1 µM and inactive = higher.

CC(=O)Oc1ccc2c(C)cc(=O)oc2c1 : > 100 µM (inactive)
CCCC(=O)OC[n+]1cccc(-c2c(COC(=O)NC(C)C)c(COC(=O)NC(C)C)c3n2CCC3)c1 : > 74.8 µM (inactive)
CCC(CCCN)Nc1cc(OC)cc2cccnc12 (stereo unspecified) : 53.5 µM (inactive)
O=C/C(=C(/Br)I)c1ccccc1 : 2.56 µM (inactive)
N#Cc1c(N)oc(-c2cccc([N+](=O)[O-])c2)c1C#N : 37.1 µM (inactive)

Entry CCOC(=O)[C@@H](Cc1ccc(CCl)cc1)NC(C)=O ; GI50 = 27.1 µM (inactive)

get_value(item= CCOC(=O)c1c(N)n(-c2ccccc2)c(=O)n(-c2ccccc2)c1=O , readout=GI50) returns > 100 µM (inactive)

Lab note: measured GI50 of O=C(C=P(c1ccccc1)(c1ccccc1)c1ccccc1)c1ccc(-c2cccc([N+](=O)[O-])c2)s1 was > 100 µM (inactive)

For this molecule ( COC(C/C(=C/CO[Si](C(C)C)(C(C)C)C(C)C)C(=O)Nc1ccccc1I)OC ), measured GI50 is 12.5 µM (inactive)

Reported GI50 for O=S(=O)(c1cc(Cl)ccc1Cl)n1ccnc1 was 23.4 µM (inactive)

Looking up COC(=O)c1cc2c3c(c1)Oc1cc(C(=O)OC)cc4c1C3c1c(cc(C(=O)OC)cc1O4)O2 , I see its GI50 listed as 17.1 µM (inactive)

# GI50 (molecule: COC(=O)C1=C(O)C(C(=O)OC)[C@]2(O)[C@H](C(=O)OC)[C@H]1C[C@@H](c1ccc(F)cc1)[C@H]2C(=O)OC (stereo partly specified) ) is 30.1 µM (inactive)

Memo: CC(SC(=S)N(C)C)C(=O)Nc1nnc(-c2ccc(Cl)cc2)o1 (stereo unspecified) , reported GI50: 44.6 µM (inactive)

Kindly note the recorded GI50 for CC1(C)[C@H]2CC[C@](C)(C2)[C@]1(S)Cc1ccccn1 , which is 37 µM (inactive)

For record CCc1ccc(CCN2CCCCC2)nc1 the listed GI50 is > 100 µM (inactive)

For reference, reported GI50 for C/C(=N\N)C(CN1CCOCC1)C(c1ccccc1)c1c(O)c2ccccc2oc1=O (stereo unspecified) stands at 91 µM (inactive)

Recorded result, O=C1Nc2ccccc2/C1=N/N=C1NCCCCN1 , GI50: > 100 µM (inactive)

// recorded GI50 for NC(=O)c1cc2ccc(O)cc2o/c1=N/c1ccccc1 : 67.8 µM (inactive)

The reported GI50 of the molecule C=C(C)C1Cc2c(cc(O)c3c(=O)c4c(oc23)C(O)Oc2cc(OC)c(OC)cc2-4)O1 (stereo unspecified) was > 10 µM (inactive)

The reported GI50 of the molecule O=C(C/C(=N/O)c1cc(-c2ccccc2)no1)c1ccccc1 was 21.4 µM (inactive)

So for Cc1ccc(C(=O)N/N=C(\N=N\c2ccccc2[N+](=O)[O-])c2ccc(N(C)C)cc2)cc1 , the logged GI50 turned out to be > 100 µM (inactive)

* * *

System: RXF 393
Test: NCI tumour cell line growth inhibition, 48 h
Active and inactive are the calls of the source. Cut-off read from the data, not from the text of the source: active = GI50 up to about 1.1 µM and inactive = higher.
Parameter call: string, one of TRUE (active), FALSE (inactive)

The following molecules have reported results that may help.
COCC12CCC(OC)C34C5CC6(O)C(OC)C=C(C5C6OC(=O)c5ccccc5)C(C(OC)C13)C4N(C)C2 (stereo not given) : FALSE
Cc1nn(C(=O)c2ccccc2O)c2c1C(c1ccc(O)cc1)SC(=N)N2 (stereo not given) : FALSE
O=C1NC(=O)C(=O)C(c2nc3ccccc3s2)C1=O : FALSE
NS(=O)(=O)c1ccc(C(=O)O)cc1 [CARZENIDE] : FALSE
CCN(CCCl)c1cc(CN(C)C)cc(NC(=O)c2ccc(C(=O)Nc3cc(CN(C)C)cc(N(CC)CCCl)c3)cc2)c1 : TRUE
O=Cc1ccccc1B(O)O : FALSE

Q: Each molecule tested received a call. Report the one for O=[N+]([O-])c1cccc2nnccc12 .
A: FALSE

* * *

Test system: NCI-H226
Assay: NCI tumour cell line growth inhibition, 48 h
Activity calls are given as the source filed them. No stated cut-off is given here; in the data, active = GI50 up to about 1.1 µM and inactive = higher.
Measurement Kind: GI50

NC(=O)C(=CNC(=S)c1ccncc1)C(N)=O : > 100 µM (inactive)

Value sought: GI50, system NCI-H226, item CO[C@H](c1ccccc1)[C@H](C)N(C)c1ccc2ccccc2c1C1=NC(C)(C)CO1 . Result: 16.2 µM (inactive)

GET /values?item= O=C(c1ccccc1)C1N=NCC1c1ccc([N+](=O)[O-])cc1 (stereo unspecified) &system= NCI-H226 returns GI50: 50.4 µM (inactive)

For COc1cc(/C=C2\Cc3ccccc3C2=O)cc(OC)c1OC on NCI-H226, measured GI50 was > 100 µM (inactive)

Log: NCI-H226, compound O=C(c1c2c(cc3c1CC1(Cc4cc5c(cc4C1)CCCC5)C3)CCCC2)C(Br)Br , GI50 = 6.38 µM (inactive)

Case CN1CCc2[nH]nc(-c3n[nH]c4c3CN(C)CC4)c2C1 , NCI-H226, GI50 recorded as > 100 µM (inactive)
